src = patent US20090012085A1

Assay: Phase I dose-escalating study, plasma pharmacokinetics in patients with solid tumor
Assay type: in vivo, human
Settings: human, plasma, 50 mg, 50 mg QD (4/1), C1D1 (n = 6), plasma; read-out: t½, mean (% CV) (converted)
Property: half-life (h)
Express it in h; write the number only.

Asked: What half-life value was documented for this molecule, Cc1[nH]c(/C=C2\C(=O)Nc3ccc(F)cc32)c(C)c1C(=O)NC[C@H](O)CN1CCOCC1 ?
Given back: 10.8

* * *

Assay: Phase I dose-escalating study, plasma pharmacokinetics in patients with solid tumor
Format: in vivo, human
Conditions: human, plasma, 25 mg, 25 mg QD (4/1), C2D28 (n = 5), plasma; read-out: t½, mean (% CV) (converted)
Property: half-life (h)
Express it in h; write the number only.

Asked: What half-life value was documented for this compound, Cc1[nH]c(/C=C2\C(=O)Nc3ccc(F)cc32)c(C)c1C(=O)NC[C@H](O)CN1CCOCC1 ?
Given back: 17.7
